- testedOn: Hexokinase 2 (H6-hHK2) (Homo sapiens)
- Construct: gene HK2; N-terminal His6-tagged human HK2, aa 17-917
- Sequence (P52789 17-917): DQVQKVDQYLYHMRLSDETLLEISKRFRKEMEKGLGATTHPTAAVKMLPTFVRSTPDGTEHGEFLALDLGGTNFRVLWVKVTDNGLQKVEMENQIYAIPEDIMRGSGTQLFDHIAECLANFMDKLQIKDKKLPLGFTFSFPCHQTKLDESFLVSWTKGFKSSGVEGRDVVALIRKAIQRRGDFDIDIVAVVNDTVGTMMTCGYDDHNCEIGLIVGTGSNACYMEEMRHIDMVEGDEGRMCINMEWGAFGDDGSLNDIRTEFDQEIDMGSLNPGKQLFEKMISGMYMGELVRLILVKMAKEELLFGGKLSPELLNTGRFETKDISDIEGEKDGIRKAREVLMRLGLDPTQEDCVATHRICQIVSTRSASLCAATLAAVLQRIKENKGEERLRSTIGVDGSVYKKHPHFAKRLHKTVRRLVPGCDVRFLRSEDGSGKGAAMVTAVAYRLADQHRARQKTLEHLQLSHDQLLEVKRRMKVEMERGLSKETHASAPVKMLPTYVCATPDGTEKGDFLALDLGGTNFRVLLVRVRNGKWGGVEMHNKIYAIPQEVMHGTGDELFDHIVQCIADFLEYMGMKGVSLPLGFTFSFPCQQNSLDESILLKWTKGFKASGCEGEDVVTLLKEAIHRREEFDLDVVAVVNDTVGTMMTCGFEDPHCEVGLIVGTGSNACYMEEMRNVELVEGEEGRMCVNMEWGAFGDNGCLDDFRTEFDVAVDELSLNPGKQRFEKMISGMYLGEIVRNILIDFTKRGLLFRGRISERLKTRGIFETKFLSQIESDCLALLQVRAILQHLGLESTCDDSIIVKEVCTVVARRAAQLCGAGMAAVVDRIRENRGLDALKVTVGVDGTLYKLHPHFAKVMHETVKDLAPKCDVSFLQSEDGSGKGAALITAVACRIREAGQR
- methodNotes: microscale thermophoresis (RED-Tris-NTA labelled His6-HK2); also inhibits isolated HK2 in kit assay
- Type: binding
quantity: Kd

molecule | experimentalValue
O=C(N/N=C/c1ccc(O)c(O)c1O)c1ccc([N+](=O)[O-])cc1 [2a] | 8.83 to 11 µM
